Biological target: RPE65 (Bos taurus, UniProt Q28175)
Construct: from tissue; host or cells: bovine retinal pigment epithelium (RPE) microsomes
Sequence (Q28175 whole entry): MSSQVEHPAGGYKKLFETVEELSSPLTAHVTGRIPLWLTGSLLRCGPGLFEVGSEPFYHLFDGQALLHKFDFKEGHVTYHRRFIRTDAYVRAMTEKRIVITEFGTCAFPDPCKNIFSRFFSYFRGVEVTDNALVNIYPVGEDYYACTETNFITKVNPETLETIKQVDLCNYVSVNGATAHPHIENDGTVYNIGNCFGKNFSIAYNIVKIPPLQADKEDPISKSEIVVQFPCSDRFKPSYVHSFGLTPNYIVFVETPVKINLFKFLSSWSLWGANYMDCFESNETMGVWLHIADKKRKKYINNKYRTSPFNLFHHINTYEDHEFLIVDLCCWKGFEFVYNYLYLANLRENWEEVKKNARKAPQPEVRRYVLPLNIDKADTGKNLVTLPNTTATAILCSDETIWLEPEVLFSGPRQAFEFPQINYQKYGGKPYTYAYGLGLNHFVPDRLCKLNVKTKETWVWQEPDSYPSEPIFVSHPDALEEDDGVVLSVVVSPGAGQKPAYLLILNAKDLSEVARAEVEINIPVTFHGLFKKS
Test: Retinoid isomerase activity assay (11-cis-retinol production in RPE microsomes)
Assay type: biochemical, Bovine
Settings: primary amine; decline in 11-cis-retinol production in RPE microsomes; read-out: Inhibition of RPE65
Below, each of the molecules is paired with its reported IC50 value.

[
  {
    "Molecule": "CC(/C=C/C=C1/C=C(c2cccnc2)CCC1)=C\\CN",
    "Target Under Test": "RPE65 (Bos taurus, UniProt Q28175)",
    "IC50": "10 to 100 µM"
  },
  {
    "Molecule": "CC1=C(/C=C/C(C)=C/C=C/CN)C(C)(C)CC=C1",
    "Target Under Test": "RPE65 (Bos taurus, UniProt Q28175)",
    "IC50": "< 10 µM"
  },
  {
    "Molecule": "COc1ccc(C(=C\\C=C\\C(C)=C\\CN)/C=C/C2=CCCCC2)cc1",
    "Target Under Test": "RPE65 (Bos taurus, UniProt Q28175)",
    "IC50": "> 200 µM"
  },
  {
    "Molecule": "CC(/C=C/C=C(/C=C/C1=CCCCC1)c1ccccc1)=C\\CN",
    "Target Under Test": "RPE65 (Bos taurus, UniProt Q28175)",
    "IC50": "> 200 µM"
  },
  {
    "Molecule": "CC1=C(/C=C/C(C)=C/C=C/C(C)=C/C=C/CN)C(C)(C)CCC1O (stereo not drawn)",
    "Target Under Test": "RPE65 (Bos taurus, UniProt Q28175)",
    "IC50": "< 10 µM"
  },
  {
    "Molecule": "CC(C)(C)C(=C\\C=C\\CN)/C=C/C1=CCCCC1",
    "Target Under Test": "RPE65 (Bos taurus, UniProt Q28175)",
    "IC50": "> 200 µM"
  },
  {
    "Molecule": "CC(/C=C/C=C(/c1ccc2ccccc2c1)C(C)(C)C)=C\\CN",
    "Target Under Test": "RPE65 (Bos taurus, UniProt Q28175)",
    "IC50": "> 200 µM"
  },
  {
    "Molecule": "CC(/C=C/C=C1/C=C(C2=CCCCC2)CCC1)=C\\CN",
    "Target Under Test": "RPE65 (Bos taurus, UniProt Q28175)",
    "IC50": "> 200 µM"
  },
  {
    "Molecule": "CC(/C=C/C=C(/C=C/c1ccc(Cl)cc1)c1ccccc1)=C\\CN",
    "Target Under Test": "RPE65 (Bos taurus, UniProt Q28175)",
    "IC50": "> 200 µM"
  }
]

---

Molecular target: RPE65 (Bos taurus)
Construct: from tissue; host or cells: bovine retinal pigment epithelium (RPE) microsomes
Test: Retinoid isomerase activity assay (11-cis-retinol production in RPE microsomes)
Assay type: biochemical, Bovine
Conditions: read-out: inhibition of RPE65
pIC50: −log10 of the molar value.
Measured Endpoint: pIC50

[
  {
    "Molecule": "CC1=C(/C=C/C=C/C=C/C=C/CN)C(C)(C)CCC1 [QEA-A-005-NH2]",
    "Measured Value": "> 5.00"
  }
]

---

Biological target: RPE65 (Bos taurus, UniProt Q28175)
Construct: from tissue; host or cells: bovine retinal pigment epithelium (RPE) microsomes
Test: Retinoid isomerase activity assay (11-cis-retinol production in RPE microsomes)
Assay type: biochemical, Bovine
Settings: primary amine; decline in 11-cis-retinol production in RPE microsomes; read-out: Inhibition of RPE65
Experimental: Bovine RPE microsomes were isolated from RPE homogenates by differential centrifugation as previously described. […] […] Production of 11-cis-retinol was quantified by normal phase HPLC with 10% (v/v) ethyl acetate in hexanes as the eluent at a flow rate of 1.4 ml·min^−1. Retinoids were detected by monitoring their absorbance at 325 nm and quantified based on a standard curve representing the relationship between the amount of 11-cis-retinol and the area under the corresponding chromatographic peak. […]
Items are presented alongside their recorded IC50.

[
  {
    "Compound String": "COc1ccc(C(=C\\C=C\\C(C)=C\\CN)/C=C/c2ccc(O)cc2)cc1",
    "IC50": "> 200 µM"
  },
  {
    "Compound String": "CC1=C(/C=C/C(C)=C/C=C/C(C)=C/C=C/CN)C(C)(C)CCC1",
    "IC50": "< 10 µM"
  },
  {
    "Compound String": "CC1=C(/C=C/C(=C/C=C/CN)C(C)(C)C)CCCC1",
    "IC50": "> 200 µM"
  },
  {
    "Compound String": "CC(/C=C/C=C(/C=C/c1ccc(C(F)(F)F)cc1)c1ccccc1)=C\\CN",
    "IC50": "> 200 µM"
  },
  {
    "Compound String": "COc1ccc(C(=C\\C=C\\C(C)=C\\CN)/C=C/c2cccnc2)cc1",
    "IC50": "10 to 100 µM"
  }
]

---

Examples of compounds with documented LRAT Substrate follow.
Target: LRAT (Bos taurus)
Construct: incubated with RPF microsomes that served as a source of LRAT enzymatic activity; from tissue; host or cells: bovine retinal pigment epithelium (RPE) microsomes
Sequence (Q9BGL2 whole entry): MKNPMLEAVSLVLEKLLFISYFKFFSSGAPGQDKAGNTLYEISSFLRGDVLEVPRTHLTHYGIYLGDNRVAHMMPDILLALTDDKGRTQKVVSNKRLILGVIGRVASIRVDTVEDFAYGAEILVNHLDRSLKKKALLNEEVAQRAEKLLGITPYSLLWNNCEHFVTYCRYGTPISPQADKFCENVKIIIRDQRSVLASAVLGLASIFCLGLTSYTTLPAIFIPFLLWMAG
Test: LRAT activity assay with bovine RPE microsomes (esterification of the corresponding primary alcohols)
Type: biochemical
Details: percentage of the corresponding primary alcohol esterified by LRAT in 1 h at 37° C; 10 μM; RPE microsomes

[
  {
    "Compound": "CC1=C(/C=C/C(C)=C/C=C/C(C)=C/CN)C(C)(C)CC(O)C1 (stereo not drawn)",
    "LRAT Substrate, %": 100
  },
  {
    "Compound": "CC1=C(/C=C/C(C)=C/C=C/CN)C(C)(C)CCC1O (stereo not drawn)",
    "LRAT Substrate, %": 90
  },
  {
    "Compound": "CC(/C=C/C=C(/C=C/c1ccc(Cl)cc1)c1ccccc1)=C\\CN",
    "LRAT Substrate, %": 100
  },
  {
    "Compound": "CC1=C(/C=C/C(=C/C=C/C(=C/CN)C(C)(C)C)C(C)(C)C)C(C)(C)CCC1",
    "LRAT Substrate, %": 0
  },
  {
    "Compound": "CC1=C(/C=C/C(=C/C=C/C(C)=C/CN)C(C)(C)C)CCCC1",
    "LRAT Substrate, %": 30
  },
  {
    "Compound": "CC(/C=C/C=C1/C=C(c2cccnc2)CCC1)=C\\CN",
    "LRAT Substrate, %": 100
  },
  {
    "Compound": "CC1=C(/C=C/C(C)=C/C=C/CN)C(C)(C)CC=C1",
    "LRAT Substrate, %": 100
  },
  {
    "Compound": "CC1=C(/C=C/C(C)=C/C=C/CN)C(C)(C)CCC1",
    "LRAT Substrate, %": 100
  },
  {
    "Compound": "COc1ccc(C(=C\\C=C\\C(C)=C\\CN)/C=C/c2ccc([N+](=O)[O-])cc2)cc1",
    "LRAT Substrate, %": 100
  },
  {
    "Compound": "CC(C)(C)C(=C\\CN)/C=C/C=C(/C=C/C1=CCCCC1)C(C)(C)C",
    "LRAT Substrate, %": 0
  },
  {
    "Compound": "COc1ccc(C(=C\\C=C\\C(C)=C\\CN)/C=C/c2ccc(O)cc2)cc1",
    "LRAT Substrate, %": 50
  },
  {
    "Compound": "CC(/C=C/C=C(/C=C/C1=CCCCC1)C(C)(C)C)=C\\CN",
    "LRAT Substrate, %": 80
  },
  {
    "Compound": "CC1=C(/C=C/C(C)=C/C=C/C(C)=C/CN)C(C)(C)CCC1",
    "LRAT Substrate, %": 100
  },
  {
    "Compound": "CC(/C=C/C=C(/C=C/c1ccc(C(F)(F)F)cc1)c1ccccc1)=C\\CN",
    "LRAT Substrate, %": 100
  },
  {
    "Compound": "CC(/C=C/C1=CCCCC1)=C\\C=C\\C(C)=C\\CN",
    "LRAT Substrate, %": 100
  },
  {
    "Compound": "CC(/C=C/C=C1/C=C(C2=COCCC2)CCC1)=C\\CN",
    "LRAT Substrate, %": 100
  },
  {
    "Compound": "CC(C)(C)C(=C\\C=C\\CN)/C=C/c1ccc2c(c1)CCCC2",
    "LRAT Substrate, %": 0
  },
  {
    "Compound": "CC(/C=C/C=C(/C=C/c1ccc2c(c1)CCCC2)C(C)(C)C)=C\\CN",
    "LRAT Substrate, %": 15
  }
]

Hey, just so you know, these numbers are from patent US10363231B2.
